# Test system: Vesicular stomatitis virus
# Measurement protocol: Antiviral activity against Vesicular stomatitis virus infected in human HEL cells assessed as inhibition of virus-induced cytopathicity after 3 days
# Type: functional, organism-based
# Run conditions: 72 h
I'd be grateful if you could share measured EC50 for these entries.

Entry Clc1ccc(C2=NN(c3nc(-c4ccc(Cl)cc4)cs3)C(c3ccc(OCc4ccccc4)cc3)C2)cc1 (centres undefined) , tested on Vesicular stomatitis virus, has a reported EC50 of > 100 µg/mL

For the compound O=C1CSC(N2N=C(c3ccccc3)CC2c2ccc(OCc3ccccc3)cc2)=N1 (centres undefined) , the measured EC50 on Vesicular stomatitis virus was > 20 µg/mL

Entry CC(=O)N1N=C(c2ccccc2)CC1c1ccc(OCc2ccccc2)cc1 (centres undefined) , Vesicular stomatitis virus data, EC50 value: > 20 µg/mL

Test item Cc1ccc(C2=NN(C3=NC(=O)CS3)C(c3ccc(OCc4ccccc4)cc3)C2)cc1 (centres undefined) ; Vesicular stomatitis virus; reported EC50 was > 4 µg/mL

EC50 on Vesicular stomatitis virus for NC(=S)N1N=C(c2ccc(Cl)cc2)CC1c1ccc(OCc2ccccc2)cc1 (centres undefined) is > 100 µg/mL

Kindly note: Vesicular stomatitis virus, NC(=S)N1N=C(c2ccccc2)CC1c1ccc(OCc2ccccc2)cc1 (centres undefined) , EC50 value reported: > 20 µg/mL

Item: Cc1ccc(C2=NN(C(N)=S)C(c3ccc(OCc4ccccc4)cc3)C2)cc1 (centres undefined) | System: Vesicular stomatitis virus | EC50: > 20 µg/mL

Field EC50 (Vesicular stomatitis virus), entry Cc1ccc(C2=NN(c3nc(-c4ccc(C)cc4)cs3)C(c3ccc(OCc4ccccc4)cc3)C2)cc1 (centres undefined) : > 20 µg/mL

Param item: Cc1ccc(-c2csc(N3N=C(c4ccc(Br)cc4)CC3c3ccc(OCc4ccccc4)cc3)n2)cc1 (centres undefined) ; param system: Vesicular stomatitis virus; output EC50: > 20 µg/mL
